assay_procedure: NCI Yeast Anticancer Drug Screen. Data for the mlh1 rad18 strain (AID 175)
measurement_conditions: S. cerevisiae mlh1 rad18 strain growth inhibition; at 50.0 µM (retest, dose inferred, filed as 5.0); active compounds read high
About 79,000 compounds went through this panel and 15% of them were active in at least one assay; those are over-represented in the sample as a whole.
Measured growth inhibition values are reported for all entries that follow.
Give the quantity in %, number only.

Cn1c(=O)c2ccccc2c2ccccc21
36
CCC(C(=O)O)C1=C(c2ccccc2)CCc2ccccc21 (stereo not drawn)
99
[O-][n+]1c2ccc(O)cc2nc2ccc(Br)cc21
93
CCCCCCCCCCCC1=C(O)C(=O)C=C(O)C1=O
90
COc1cc(C(=O)/C=C/c2ccccc2O)ccc1O
98
CC1=NN(c2cccc(Cl)c2)C(=O)C1
100
Cn1ccnc1Oc1ccc(Cl)cc1
74
[N-]=[N+]=NC1=C(c2ccccn2)C(=O)c2cccc3cccc1c23
52

Identify measured growth inhibition corresponding to "Cc1ccc(S(=O)(=O)Oc2cc(Cl)c(Cl)cc2Cl)cc1" 53

Identify measured growth inhibition corresponding to "FC(F)(F)c1nc2nc(Cl)c(Cl)nc2n1CCCN1CCOCC1" 57

Identify measured growth inhibition corresponding to FC(F)(F)c1cc(NC(=S)N2c3ccccc3-n3cccc3C2c2cccnc2)cc(C(F)(F)F)c1 (stereo not drawn) 69

Identify measured growth inhibition corresponding to "C[Si](C)(C)CNC(=O)OCc1ccccc1" -1

Identify measured growth inhibition corresponding to "COc1ccc2c(c1)C(=O)c1ccccc1C2" 31

###

Measured growth inhibition values are reported for all entries that follow.
assay_procedure: NCI Yeast Anticancer Drug Screen. Data for the CLN2oe strain (AID 163);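 note: 0% = growth of vehicle-only control cultures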
measurement_conditions: S. cerevisiae CLN2oe strain, at 11.0 µM, active compounds read high
Protocol: Growth inhibition of yeast strains with defined genetic alterations is measured as a screen for potential anti-cancer activity. Selected strains with alterations in DNA damage repair or cell cycle control were exposed to compounds and growth inhibition was measured relative to vehicle treated controls. The strain used in this assay is CLN2oe
This is part of a sample that, as a whole, favours compounds with a hit. Of some 79,000 tested, about 15% had one in any assay.
Give the quantity in %, number only.

Use these answered entries as a reference point.
S=C(N/N=C(/c1ccccc1)c1ccccn1)N1CCCCCC1
4
C[S+](C)C1(c2ccccc2)C(=O)c2ccccc2C1=O
8
O=[N+]([O-])c1ccc([N+]2=NC(c3ccccc3)=NN(c3ccccc3)C2)cc1
-2

Identify measured growth inhibition corresponding to "CC(C)C1=CC2=C[C@H](O)[C@H]3C(C)(C)CCC[C@]3(C)C2=C(O)C1=O" 76

Identify measured growth inhibition corresponding to C/C(=N\O)C1CC2C=C(C#N)C1N(Cc1ccccc1)C2 (stereo unspecified) -7

Identify measured growth inhibition corresponding to "CCC#CCCCOC(=O)c1cc([N+](=O)[O-])cc([N+](=O)[O-])c1" -19

Identify measured growth inhibition corresponding to "CC1(C)[C@@H]2CC[C@]1(C)[C@H](OC(=O)CSC#N)C2" 1

Identify measured growth inhibition corresponding to "BrCC[P+](c1ccccc1)(c1ccccc1)c1ccccc1" 2

Identify measured growth inhibition corresponding to "O=C(/C=C\c1ccc(Cl)cc1Cl)c1cccs1" -17

Identify measured growth inhibition corresponding to CC1(Cl)CC(O)C2(CC1Br)C1(C)OC1C1OC1(Br)C2(C)C (stereo unspecified) 5

Identify measured growth inhibition corresponding to CC1OCC2OC(C)OC(C3C4=C(CC(C)(C)CC4=O)OC4=C3C(=O)CC(C)(C)C4)C2O1 (stereo unspecified) -2

###

assay_procedure: NCI Yeast Anticancer Drug Screen. Data for the mgt1 strain (AID 153)
measurement_conditions: S. cerevisiae mgt1 mutant growth inhibition; at 100.0 µM
Description: Growth inhibition of yeast strains with defined genetic alterations is measured as a screen for potential anti-cancer activity. Selected strains with alterations in DNA damage repair or cell cycle control were exposed to compounds and growth inhibition was measured relative to vehicle treated controls. The strain used in this assay is mgt1
Compounds without any hit were thinned out: in the full panel of roughly 79,000, 15% have a hit. Active and inactive are the calls of the source. Cut-off read from the data, not from the text of the source: active = growth inhibition above about 70%; inactive = the rest.
# valid calls are TRUE (active), FALSE (inactive); nothing else

Examples from the recorded data:
Fc1ccc(NC(=S)SCc2ccc(Cl)c(Cl)c2)cc1F
TRUE
C[Si](C)(C)CNC(=O)OCc1ccccc1
FALSE
O=[N+]([O-])c1ccc(=S)[nH]c1
TRUE
O=C1C(Nc2ccccc2)=C(Oc2ccccc2)C(=O)c2ccccc21
FALSE
COC(=O)c1ccc(CCC2=CC(=O)C(Br)=CC2=O)cc1
FALSE

--- query ---
Given "O=C(N=Nc1ccccc1Cl)NNc1ccccc1Cl" , state the outcome it received in this test. FALSE

###

assay_procedure: NCI Yeast Anticancer Drug Screen. Data for the rad52 strain (AID 147);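 note: 0% = growth of vehicle-treated control cultures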
measurement_conditions: S. cerevisiae rad52 mutant growth inhibition; at 11.0 µM
The panel holds about 79,000 compounds, 15% with a hit somewhere; the sample as a whole holds those more often. The source made the active and inactive calls. Cut-off read from the data, not from the text of the source: active = growth inhibition above about 70%; inactive = the rest.
# valid calls are active, inactive; nothing else

Examples from the recorded data:
O=Nc1cccnc1N=O
active
N#CN=Nc1cc(Cl)c(N=NC#N)cc1Cl
inactive
CC1(C)C(=O)OC(n2cc(F)c(=O)[nH]c2=O)C1=O (stereo unspecified)
inactive
C/C(=N/NC(=S)N1CCCCCC1)c1cccc(/C(C)=N\NC(=S)N2CCCCCC2)n1
inactive
OCC1OC(OCC(O)C(O)C(O)C(/C=N/Nc2ccccc2)=N/Nc2ccccc2)C(O)C(O)C1O (stereo unspecified)
inactive

Given CC(CC(C)(C)[N+](C)(C)C)[N+](C)(C)C (stereo unspecified) , state the outcome it received in this test. inactive

Given "O=C(O)c1ccccc1NC(=S)c1ccccc1" , state the outcome it received in this test. inactive

Given OC1(c2ccccc2)CSC2=Nc3ccccc3C3CCN1N23 (stereo unspecified) , state the outcome it received in this test. inactive

Given "CCC#CCCCOC(=O)c1cc([N+](=O)[O-])cc([N+](=O)[O-])c1" , state the outcome it received in this test. inactive

Given "C[C@@H]1C[C@H]2[C@@H]3CCC4=CC(=O)C=C[C@]4(C)[C@@]3(Cl)[C@@H](Cl)C[C@]2(C)[C@@]1(O)C(=O)COP(=O)(O)O" , state the outcome it received in this test. inactive

Given "COC(=O)c1ccc(CCC2=CC(=O)C(Br)=CC2=O)cc1" , state the outcome it received in this test. inactive

###

assay_procedure: NCI Yeast Anticancer Drug Screen. Data for the sgs1 mgt1 strain (AID 161);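 note: 0% = growth of cultures given vehicle only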
measurement_conditions: S. cerevisiae sgs1 mgt1 strain, at 5.0 µM (retest, dose inferred, filed as 0.5), active compounds read high
Procedure: Growth inhibition of yeast strains with defined genetic alterations is measured as a screen for potential anti-cancer activity. Selected strains with alterations in DNA damage repair or cell cycle control were exposed to compounds and growth inhibition was measured relative to vehicle treated controls. The strain used in this assay is sgs1 mgt1
Compounds without any hit were thinned out: in the full panel of roughly 79,000, 15% have a hit. Activity calls are given as the source filed them. Rule as the data show it: active = growth inhibition above about 70%; inactive = the rest.
property: growth inhibition

Cc1cccc2c(C(O)CBr)cc(-c3ccc(Cl)cc3)nc12 (stereo not given)
3% (inactive)
COC(=O)C1=C(C(=O)OC)C2(C)C=CC1O2 (stereo not given)
-55% (inactive)
c1ccc2c(c1)-c1nc3ccccc3cc1C2N1CCOCC1 (stereo not given)
-13% (inactive)
CC(C(=O)N1C(=O)N(C(=O)[C@H](C)C(O)c2ccccc2)[C@H](c2ccccc2)[C@H]1c1ccccc1)[C@@H](O)c1ccccc1 (stereo not given in full)
-12% (inactive)
Cc1ccc(Cl)c2[nH]c(-c3ccccc3)cc(=O)c12
-28% (inactive)

Identify measured growth inhibition corresponding to CC(C)C1=CCC2C(=C1)CCC1C(C)(C(=O)O)CCCC21C (stereo not given) (tested in a mixture with another compound) 31% (inactive)

Identify measured growth inhibition corresponding to "O=[N+]([O-])C(=C(Sc1ccccc1)Sc1ccccc1)C(Cl)=C(Cl)Cl" 2% (inactive)

Identify measured growth inhibition corresponding to O=C1OC(=O)C2CCCC3CCCC1C32 (stereo not given) -21% (inactive)

Identify measured growth inhibition corresponding to "CC(C)OC(=O)Oc1ccccc1OC(=O)OC(C)C" -2% (inactive)

Identify measured growth inhibition corresponding to "O=[N+]([O-])c1ccc2nc3ccccc3cc2c1" -40% (inactive)

###

assay_procedure: NCI Yeast Anticancer Drug Screen. Data for the rad50 strain (AID 155);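 note: 0% = growth of vehicle-only cultures of the same strain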
measurement_conditions: S. cerevisiae rad50 strain growth inhibition; at 50.0 µM (retest, dose inferred, filed as 5.0)
Procedure: Growth inhibition of yeast strains with defined genetic alterations is measured as a screen for potential anti-cancer activity. Selected strains with alterations in DNA damage repair or cell cycle control were exposed to compounds and growth inhibition was measured relative to vehicle treated controls. The strain used in this assay is rad50
The panel holds about 79,000 compounds, 15% with a hit somewhere; the sample as a whole holds those more often. Calls of active or inactive are those of the source. Cut-off read from the data, not from the text of the source: active = growth inhibition above about 70%; inactive = the rest.
# valid calls are 1.0 for active, 0.0 for inactive; nothing else

CCCCOC(=O)N[C@H]1CCc2cc(OC)c(OC)c(OC)c2-c2ccc(SC)c(=O)cc21
0.0
Cn1ccnc1Oc1ccc(Cl)cc1
1.0
COc1ccc(/C=C2\SC(=S)N(/C=C/c3nc4ccccc4[nH]c3=O)C2=O)cc1OC
0.0
CCOC(=O)C(NC(=O)c1ccccc1)(N1CCN(c2cc3c(cc2F)c(=O)c(C(=O)O)cn3C2CC2)CC1)C(F)(F)F (stereo unspecified)
1.0
Cn1c(=O)c(-c2ccccc2)c(N=[N+]=[N-])c2ccccc21
1.0

Given CN1c2ccc(Cl)cc2C(=O)NC1c1ccc([N+](=O)[O-])s1 (stereo unspecified) , state the outcome it received in this test. 1.0

Given CC(CC(C)(C)[N+](C)(C)C)[N+](C)(C)C (stereo unspecified) , state the outcome it received in this test. 1.0

Given "N/C(=N\OC(=O)NC(Cl)=C(Cl)Cl)c1cc(C(F)(F)F)cc(C(F)(F)F)c1" , state the outcome it received in this test. 0.0

Given "COc1ccc(/C(C)=N/OC(=O)c2c(-c3ccccc3Cl)noc2C)cc1CN1CCOCC1" , state the outcome it received in this test. 1.0

Given "Oc1ccc(NCn2c(=S)sc3ccccc32)cc1" , state the outcome it received in this test. 1.0

Given "O=C(CCCN1CCC2(CC1)CC(=O)N(N1CCCCCC1)C2=O)c1ccc(F)cc1" , state the outcome it received in this test. 0.0

Given "Cc1cc(I)ccc1N" , state the outcome it received in this test. 1.0

Given "CCC(=O)Oc1c(Cl)cc(Cl)c2ccccc12" , state the outcome it received in this test. 0.0

Given "O=C1C=CC(=C(c2ccccc2)c2ccccc2)c2ccccc21" , state the outcome it received in this test. 1.0

Given "C/C(=N\NC(=S)SCc1ccccc1)c1ccccn1" , state the outcome it received in this test. 0.0

Given "CC(C)c1cc(C(C)C)c(O)c(C([O-])[O-])c1.CC(C)c1cc(C(C)C)c(O)c(C([O-])[O-])c1.CC(C)c1cc(C(C)C)c(O)c(C([OH2+])[OH2+])c1.CC(C)c1cc(C(C)C)c(O)c(C([OH2+])[OH2+])c1.[Cu+2].[Cu+2].[OH3+].[OH3+]" , state the outcome it received in this test. 0.0

Source: PubChem BioAssay (NCI)
